// data source = patent US20200270588A1

SYSTEM: SEQ ID NO 17, zmBX9 S117V, M279F, A334K mutant (Zea mays, UniProt B4G072, A334K/M279F/S117V)
Construct: polypeptides were the C-terminally his-tagged; His tag (C); made in house
Sequence (B4G072 whole entry S117V/M279F/A334K): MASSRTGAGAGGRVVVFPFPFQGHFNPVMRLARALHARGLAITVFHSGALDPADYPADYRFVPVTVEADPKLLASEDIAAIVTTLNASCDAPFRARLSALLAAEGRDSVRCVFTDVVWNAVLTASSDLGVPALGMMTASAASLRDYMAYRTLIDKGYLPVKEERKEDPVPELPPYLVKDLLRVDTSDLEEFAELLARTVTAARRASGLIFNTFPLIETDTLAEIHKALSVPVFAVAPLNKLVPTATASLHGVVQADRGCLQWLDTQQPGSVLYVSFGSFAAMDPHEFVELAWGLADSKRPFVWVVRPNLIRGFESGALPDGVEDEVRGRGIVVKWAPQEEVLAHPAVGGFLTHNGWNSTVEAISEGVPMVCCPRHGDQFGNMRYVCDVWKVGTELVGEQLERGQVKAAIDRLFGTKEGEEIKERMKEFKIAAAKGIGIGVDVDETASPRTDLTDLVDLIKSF
ASSAY_NOTES: UDP-Glo glucosyl transferase assay, purified enzyme
Assay type: biochemical
EXPERIMENTAL_SETUP: herbicide mM: V 0.300, VI 0.250, VII 0.210; IV, VIII, XI, XXI, XX, XVIII, XVI, XV, XIV 0.200; others 1.000
Activity reference
Please provide the amount together with its unit, number first.

CC1CC(O)N(c2ncc(C(F)(F)F)s2)C1=O (stereo not drawn)
0.073 pmol/sec/pmol enzyme

In: Using the record for CN1CC(O)N(c2cc(C(C)(C)C)on2)C1=O (stereo not drawn) , report its Activity.
Out: 0.023 pmol/sec/pmol enzyme

In: Entry CON1C(=O)N(c2cc(C(F)(F)F)c(C)cn2)C(O)[C@@H]1C (stereo partly drawn) please
Out: 0.833 pmol/sec/pmol enzyme

In: Try this compound too: CC1C(=O)N(c2cc(C(F)(F)F)n(C)n2)C(O)[C@@H]1C (stereo partly drawn)
Out: 0.083 pmol/sec/pmol enzyme

In: And for CN1CC(O)N(c2cc(C(F)(F)F)ncn2)C1=O (stereo not drawn) ?
Out: 0.106 pmol/sec/pmol enzyme

In: Next record, please: CN1CC(O)N(c2nnc(C(C)(C)C)s2)C1=O (stereo not drawn)
Out: 0.035 pmol/sec/pmol enzyme

====

SYSTEM: SEQ ID NO 23, mutant of Zea mays bx9 glucosyl transferase (Zea mays, UniProt B4G072, A334K/F21Y/L194C/M279F/S117V)
Construct: His tag (C); made in house
Sequence (B4G072 whole entry F21Y/S117V/L194C/M279F/A334K): as the sequence (B4G072 whole entry S117V/M279F/A334K) above, with F21Y, L194C counted along it
ASSAY_NOTES: UDP-Glo glucosyl transferase assay, purified enzyme
Type: biochemical
EXPERIMENTAL_SETUP: lower block, concentration printed only in upper block: V 0.300, VII 0.210; IV, VIII, XI, XXI, XX, XVIII, XVI, XV, XIV 0.200; others 1.000 mM
Binary call on Activity: True from 0.4 pmol/sec/pmol enzyme upward, False beneath that.

In: Tell me whether Activity is at least 0.4 pmol/sec/pmol enzyme here: CN1CC(O)N(c2cc(C(C)(C)C)on2)C1=O (centres unmarked) [XXII]
Out: False

In: Repeat with C[C@H]1C(O)N(c2cc(C(F)(F)F)ccn2)C(=O)N1C (some centres unmarked) [XXIV]
Out: True

In: Same question, CN1CC(O)N(c2cc(C(F)(F)F)ncn2)C1=O (centres unmarked) [XXV] this time
Out: True

In: Could you do the same for CON1C(=O)N(c2cc(C(F)(F)F)c(C)cn2)C(O)[C@@H]1C (some centres unmarked) [XV] , please?
Out: True

In: Same question for C[C@@H]1C(O)N(c2noc(C(C)(C)C)c2C#N)C(=O)[C@@H]1C (some centres unmarked) [XIII] please.
Out: False

====

Reported Activity values for a set of compounds
SYSTEM: SEQ ID NO 22, mutant of Zea mays bx9 glucosyl transferase (Zea mays, UniProt B4G072, A334K/F21Y/M279F/S117V/T220P)
Construct: His tag (C); made in house
Sequence (B4G072 whole entry F21Y/S117V/T220P/M279F/A334K): as the sequence (B4G072 whole entry S117V/M279F/A334K) above, with F21Y, T220P counted along it
ASSAY_NOTES: UDP-Glo glucosyl transferase assay, purified enzyme
Format: biochemical
EXPERIMENTAL_SETUP: lower block, concentration printed only in upper block: V 0.300, VII 0.210; IV, VIII, XI, XXI, XX, XVIII, XVI, XV, XIV 0.200; others 1.000 mM

Example compounds with recorded Activity:
CON1C(=O)N(c2cc(C(F)(F)F)c(Cl)cn2)C(O)C1C (centres unmarked)
1.714 pmol/sec/pmol enzyme
CC1C(O)N(c2cc(C(F)(F)F)c(Cl)cn2)C(=O)N1C (centres unmarked)
0.315 pmol/sec/pmol enzyme
CN1CC(O)N(c2cc(C(C)(C)C)ncn2)C1=O (centres unmarked)
0.099 pmol/sec/pmol enzyme

In: Look at this compound and give its reported Activity. CC1C(=O)N(c2cc(C(F)(F)F)n(C)n2)C(O)[C@@H]1C (some centres unmarked)
Out: 0.134 pmol/sec/pmol enzyme

In: // next record CN1CC(O)N(c2cc(C(F)(F)F)ccn2)C1=O (centres unmarked)
Out: 1.221 pmol/sec/pmol enzyme

In: Cool, now C[C@H]1C(O)N(c2cc(C(F)(F)F)ccn2)C(=O)N1C (some centres unmarked)
Out: 0.908 pmol/sec/pmol enzyme
